Source listed as patent US20230265116A1.

SYSTEM_UNDER_TEST: EGFR L858R/T790M (H1975-clone #36, homozygous) (Homo sapiens, UniProt P00533, L858R/T790M)
Construct: designed to specifically target WT EGFR but preserve the L858R/T790M copy; host or cells: H1975-clone #36
Sequence (P00533 25-1210 T790M/L858R): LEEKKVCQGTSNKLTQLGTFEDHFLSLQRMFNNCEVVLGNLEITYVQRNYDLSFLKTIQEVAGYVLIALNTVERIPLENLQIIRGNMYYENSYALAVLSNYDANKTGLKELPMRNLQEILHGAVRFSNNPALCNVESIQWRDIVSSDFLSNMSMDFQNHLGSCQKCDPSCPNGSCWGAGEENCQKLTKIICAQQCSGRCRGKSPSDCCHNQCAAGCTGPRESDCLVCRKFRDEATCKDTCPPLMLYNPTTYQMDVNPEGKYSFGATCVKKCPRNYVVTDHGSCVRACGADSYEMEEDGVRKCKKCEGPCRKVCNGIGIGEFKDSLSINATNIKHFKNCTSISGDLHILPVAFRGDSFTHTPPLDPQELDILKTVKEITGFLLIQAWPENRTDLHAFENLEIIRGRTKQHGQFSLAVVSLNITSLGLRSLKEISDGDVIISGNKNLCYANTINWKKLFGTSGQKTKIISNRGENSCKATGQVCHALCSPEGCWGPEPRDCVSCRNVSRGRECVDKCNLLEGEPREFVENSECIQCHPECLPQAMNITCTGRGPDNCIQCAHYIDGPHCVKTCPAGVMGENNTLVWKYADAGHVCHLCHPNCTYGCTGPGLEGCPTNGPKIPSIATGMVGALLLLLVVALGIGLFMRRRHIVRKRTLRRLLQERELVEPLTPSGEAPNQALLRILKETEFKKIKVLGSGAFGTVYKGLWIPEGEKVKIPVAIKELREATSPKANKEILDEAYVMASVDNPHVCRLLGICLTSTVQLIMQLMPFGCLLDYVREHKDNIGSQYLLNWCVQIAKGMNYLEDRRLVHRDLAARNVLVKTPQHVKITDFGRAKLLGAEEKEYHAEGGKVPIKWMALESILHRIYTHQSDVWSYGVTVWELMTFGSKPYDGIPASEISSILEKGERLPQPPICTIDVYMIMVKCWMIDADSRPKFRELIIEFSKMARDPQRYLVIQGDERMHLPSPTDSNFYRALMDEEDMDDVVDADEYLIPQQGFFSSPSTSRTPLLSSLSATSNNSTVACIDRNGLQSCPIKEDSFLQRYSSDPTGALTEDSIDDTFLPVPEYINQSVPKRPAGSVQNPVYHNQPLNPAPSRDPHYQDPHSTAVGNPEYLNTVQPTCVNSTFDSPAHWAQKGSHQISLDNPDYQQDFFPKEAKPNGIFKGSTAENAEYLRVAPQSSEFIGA
ASSAY_NOTES: EGFR degradation HTRF assay, H1975-clone #36 cells
Type: cell-based
CONDITION_NOTES: NCI-H1975; H1975 #36, 16h treatment, maximum percentage of degradation
MEASURED_ATTRIBUTE: Dmax (%)
One number for each entry, in %.

The cases that follow already have their Dmax on record.
{"columns": ["MOLECULE", "MEASURED_ATTRIBUTE", "READOUT_NUMBER"],
 "data": [
  ["COc1cc(N2CCC(N3CCN(CCc4ccc(C5CCC(=O)NC5=O)cc4)CC3)CC2)ccc1Nc1ncc(Cl)c(Nc2ccccc2NS(C)(=O)=O)n1 (stereo not drawn) [Example 138]", "Dmax", 87],
  ["COc1cc(N2CCC(N(C)CC3CCN(c4ccc(N5CCC(=O)NC5=O)c(F)c4)CC3)CC2)c(C)cc1Nc1ncc(Br)c(Nc2ccc3nccnc3c2P(C)(C)=O)n1 [Example 81]", "Dmax", 5.13],
  ["COc1cc(N2CCN(CC3CCN(c4ccc(N5CCC(=O)NC5=O)cc4F)CC3)CC2)c(C)cc1Nc1ncc(Br)c(Nc2ccc3nccnc3c2P(C)(C)=O)n1 [Example 97]", "Dmax", 11.2],
  ["CCc1cc(Nc2ncc(Br)c(Nc3ccc4nccnc4c3P(C)(C)=O)n2)c(OC)cc1N1CCC(N2CCN(CCCC3CN(c4ccc5c(c4)C(=O)N(C4CCC(=O)NC4=O)C5=O)C3)CC2)CC1 (stereo not drawn) [Example 56]", "Dmax", 88.8],
  ["COc1cc(N2CCN(C3CN(C(=O)c4cnc(C(=O)Nc5ccc(C6CCC(=O)NC6=O)cc5)cn4)C3)CC2)c(C)cc1Nc1ncc(Br)c(Nc2ccc3nccnc3c2P(C)(C)=O)n1 (stereo not drawn) [Example 100]", "Dmax", 62.6]
]}

# batch: return Dmax for each of the 7 molecules below
1. COc1cc(N2CCC(N3CCN(CCc4ccc(C5CCC(=O)NC5=O)cc4)CC3)CC2)ccc1Nc1ncc(Cl)c(Nc2ccccc2N(C)S(C)(=O)=O)n1 (stereo not drawn) [Example 119]
2. CCc1cc(Nc2ncc(Br)c(Nc3ccc4nccnc4c3P(C)(C)=O)n2)c(OC)cc1N1CCC(N2CCN(CCC3CCN(c4ccc(C5CCC(=O)NC5=O)cc4)CC3)CC2)CC1 (stereo not drawn) [Example 23]
3. COc1cc(N2CCC(N3CCN(C(=O)C[C@H](NC(=O)[C@@H]4C[C@@H](O)CN4C(=O)[C@@H](c4cc(C)no4)C(C)C)c4ccc(-c5scnc5C)cc4)CC3)CC2)ccc1Nc1ncc(Cl)c(Nc2ccccc2P(C)(C)=O)n1 [Example 117]
4. CCc1cc(Nc2ncc(Br)c(Nc3ccc4nccnc4c3P(C)(C)=O)n2)c(OC)cc1N1CCC(N2CCN(CCc3ccc(C4CCC(=O)NC4=O)c(OC)c3)CC2)CC1 (stereo not drawn) [Example 2]
5. COc1cc(N2CCC(N3CCN(CCCC4CN(c5ccc6c(c5)C(=O)N(C5CCC(=O)NC5=O)C6=O)C4)CC3)CC2)ccc1Nc1ncc(Cl)c(Nc2ccccc2P(C)(C)=O)n1 (stereo not drawn) [Example 118]
6. CCc1cc(Nc2ncc(Br)c(Nc3ccc4nccnc4c3P(C)(C)=O)n2)c(OC)cc1N1CCC(N2CCN(C(=O)[C@@H]3CCN(c4cc(F)c(C5CCC(=O)NC5=O)c(F)c4)C3)CC2)CC1 (stereo partly drawn) [Example 255]
7. COc1cc(N2CCC(N3CCN(C(=O)CCN4CCC(c5ccc(C6CCC(=O)NC6=O)cc5)CC4)CC3)CC2)ccc1Nc1ncc(Cl)c(Nc2ccccc2N(C)S(C)(=O)=O)n1 (stereo not drawn) [Example 123]

Given back:
1. 83.9
2. 65.5
3. 86.7
4. 53.6
5. 82.4
6. 90.2
7. 79.7
